target: Peroxisome proliferator-activated receptor gamma (Homo sapiens); assay: Agonist response against human PPAR gamma in transactivation assay
Sequence (P37231 whole entry): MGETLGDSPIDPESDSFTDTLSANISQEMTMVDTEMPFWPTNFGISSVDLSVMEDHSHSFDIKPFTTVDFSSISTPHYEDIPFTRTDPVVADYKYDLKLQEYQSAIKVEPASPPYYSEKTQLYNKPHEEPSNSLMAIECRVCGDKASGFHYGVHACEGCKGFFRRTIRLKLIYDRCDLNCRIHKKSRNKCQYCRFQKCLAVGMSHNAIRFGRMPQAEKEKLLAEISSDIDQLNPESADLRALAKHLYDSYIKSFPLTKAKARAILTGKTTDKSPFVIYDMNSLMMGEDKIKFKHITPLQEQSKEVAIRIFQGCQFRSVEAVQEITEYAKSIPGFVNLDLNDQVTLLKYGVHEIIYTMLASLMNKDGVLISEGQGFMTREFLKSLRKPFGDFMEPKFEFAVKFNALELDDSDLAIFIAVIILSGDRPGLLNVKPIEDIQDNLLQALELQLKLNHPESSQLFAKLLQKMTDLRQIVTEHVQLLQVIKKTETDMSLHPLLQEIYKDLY
pEC50: −log10 of the molar value.
PARAMETER: pEC50

// known answers, use as guide
COMPOUND | TARGET | RECORDED VALUE
CCCc1cc(C(=O)CC)cc(C)c1OC(C(=O)O)c1ccc(C(C)C)cc1 (stereo not given) | Peroxisome proliferator-activated receptor gamma (Homo sapiens) | 6.71
CCCc1cc2c(=O)n(C(C)C)oc2c(CCC)c1O[C@H](C(=O)O)c1ccc(C(C)C)cc1 | Peroxisome proliferator-activated receptor gamma (Homo sapiens) | 6.37
CCCc1cc2c(=O)n(C)oc2c(CCC)c1O[C@H](C(=O)O)c1ccccc1 | Peroxisome proliferator-activated receptor gamma (Homo sapiens) | 6.41
CCCc1cc2c(=O)n(C(C)C)oc2c(CCC)c1O[C@H](C(=O)O)c1ccc(CC(C)C)cc1 | Peroxisome proliferator-activated receptor gamma (Homo sapiens) | 6.43
CCCc1c(O[C@H](C(=O)O)c2ccc(C(C)C)cc2)c(Cl)cc2c1oc(=O)n2CC | Peroxisome proliferator-activated receptor gamma (Homo sapiens) | 6.44
CCCc1cc(C(=O)CC)cc(Cl)c1O[C@H](C(=O)O)c1ccc(C(C)C)cc1 | Peroxisome proliferator-activated receptor gamma (Homo sapiens) | 6.44
CCCc1cc2c(oc(=O)n2CC2CC2)c(CCC)c1O[C@H](C(=O)O)c1ccc(C(C)C)cc1 | Peroxisome proliferator-activated receptor gamma (Homo sapiens) | 6.48
CCCc1cc2c(oc(=O)n2C)c(CCC)c1O[C@H](C(=O)O)c1ccc(C(C)C)cc1 | Peroxisome proliferator-activated receptor gamma (Homo sapiens) | 6.19
CCCc1cc2c(oc(=O)n2CC(F)(F)F)c(CCC)c1O[C@H](C(=O)O)c1ccc(C(C)C)cc1 | Peroxisome proliferator-activated receptor gamma (Homo sapiens) | 6.85
CCCc1cc(C(=O)CC)cc(CCC)c1O[C@H](C(=O)O)c1ccc(C(C)C)cc1 | Peroxisome proliferator-activated receptor gamma (Homo sapiens) | 6.82

P. CCCc1cc(C(=O)CC)cc(CCC)c1O[C@H](C(=O)O)c1ccc(CC(C)C)cc1
Q. CCCc1cc(C(=O)CC)cc(CCC)c1O[C@H](C(=O)O)c1ccc(CC)cc1
Query block: Of P versus Q , which is the one with smaller reported pEC50? Choose, then provide that item's label.
Result block: Q
